Can you tell me APTT: concentration of compound to extend the normal APTT by 1.5× for the items I'm about to list?
tested on: human plasma; test: APTT (activated partial thromboplastin time), clotting time of human plasma in vitro; type: biochemical; conditions: pooled citrated human plasma, 1.5× extension of clotting time

The molecule listed as `Cc1cc(OC[C@H](C)Nc2ccncc2)cc(C(=O)N(C)C(C)C)c1` shows APTT: concentration of compound to extend the normal APTT by 1.5× equal to 90 (1.5×) nM

The molecule listed as `CCCN(C)C(=O)c1cc(C)cc(OC[C@H](C)Nc2ccncc2)c1` shows APTT: concentration of compound to extend the normal APTT by 1.5× equal to 97 (1.5×) nM

The molecule listed as CCC(COc1cc(Cl)cc(C(=O)N(C(C)C)C(C)C)c1)Nc1ccncc1.Cl (centres unmarked) shows APTT: concentration of compound to extend the normal APTT by 1.5× equal to 650 (1.5×) nM

The molecule listed as `CCCN(CCC)C(=O)c1cc(C)cc(OC[C@H](C)Nc2ccncc2)c1` shows APTT: concentration of compound to extend the normal APTT by 1.5× equal to 110 (1.5×) nM

The molecule listed as `CCCN(C(=O)c1cc(C)cc(OC[C@H](C)Nc2ccncc2)c1)C(C)C` shows APTT: concentration of compound to extend the normal APTT by 1.5× equal to 60 (1.5×) nM

The molecule listed as `CCCN(CC)C(=O)c1cc(C)cc(OC[C@H](C)Nc2ccncc2)c1` shows APTT: concentration of compound to extend the normal APTT by 1.5× equal to 120 (1.5×) nM

The molecule listed as `CCN(C(=O)c1cc(C)cc(OC[C@H](C)Nc2ccncc2)c1)C(C)C` shows APTT: concentration of compound to extend the normal APTT by 1.5× equal to 40 (1.5×) nM

The molecule listed as `Cc1cc(OC[C@H](C)Nc2ccncc2)cc(C(=O)N(C(C)C)C(C)C)c1` shows APTT: concentration of compound to extend the normal APTT by 1.5× equal to 80 (1.5×) nM
